ASSAY TARGET: Dihydroorotate dehydrogenase (quinone), mitochondrial (Plasmodium falciparum (isolate 3D7))
ASSAY NOTES: inhibition of P. falciparum DHODH – biochemical, C-terminal His tag, absorbance 600 nm, primary screen (AID 1175);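 further: recombinant parasite enzyme with a five histidine tag at its C terminus; test concentration not given here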
CONDITIONS: PfDHODH enzyme, DCIP absorbance 600 nm; higher = more signal, called active from +8 up or from −8 down
// reported composite z-score per item
Returns: the value as a bare number; no unit string appended.

COMPOUND: CCCC[C@H]1OB(O)C[C@H]2C1=C(COc1ccccc1)C[C@H]1C(=O)C=CC(=O)[C@H]12
ENDPOINT LABEL: composite z-score
OBS VALUE: -0.973

COMPOUND: C=CCC(OC(C)=O)[C@@H]1[C@@H](N(Cc2cccc3ccccc23)C(=O)Cc2ccc(OC)cc2)c2cc(OCCCO)ccc2N1C(=O)Cc1ccc2ccccc2c1 (some centres undefined)
ENDPOINT LABEL: composite z-score
OBS VALUE: -0.717

COMPOUND: C=C(CCCC)C(=O)CC[C@@H](OC(=O)c1ccccc1-c1ccccc1C(=O)O)c1ccccc1OCCO
ENDPOINT LABEL: composite z-score
OBS VALUE: -1.35

## Input Name the reported composite z-score value associated with the compound CCC(CC)C(O)C1C=CC2C(=O)N(c3ccccc3)C(=O)C2N1Nc1ccccc1F (centres undefined)
## Output 1.57

----------
Tested on: Wnt5a (protein binding on small-molecule microarray)
ASSAY NOTES: small molecules binding Wnt5a protein – biophysical, small-molecule microarray, 635/667 nm fluorescence, primary screen (AID 1142);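 further: fluorescence read at 667 nm with signal to noise per printed feature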
CONDITIONS: 635 nm fluorescence, higher = more signal
Documented composite z-score across a set of molecules

MOLECULE: CC(C)(C)OC(=O)CC[C@]1(C(=O)NCC(O)CO)N=C(c2ccc(OCCCO)cc2)O[C@H]1c1ccccc1N=[N+]=[N-] (stereo partly drawn)
ASSAY TARGET: Wnt5a (protein binding on small-molecule microarray)
composite z-score: 0.112
//
MOLECULE: C=C(CCCC)/C(=C/C[C@H](OC(=O)c1ccncc1)c1ccccc1OCCO)c1cc(C(=O)OC)ccc1OC
ASSAY TARGET: Wnt5a (protein binding on small-molecule microarray)
composite z-score: -0.0692
//
MOLECULE: COc1cc(CO)cc(I)c1O[C@H]1C=C(C(=O)NCCO)C[C@@H](NC2CCCCCC2)[C@@H]1O
ASSAY TARGET: Wnt5a (protein binding on small-molecule microarray)
composite z-score: 0.29
//
MOLECULE: COCCCNC(=O)[C@@]1(CCS(=O)(=O)c2ccccc2)COC(c2ccc(OCCCO)cc2)=N1
ASSAY TARGET: Wnt5a (protein binding on small-molecule microarray)
composite z-score: 0.612
//
MOLECULE: COCC(=C=CC[C@H](O)c1ccccc1OCCO)C[C@H](O)COCc1ccccc1
ASSAY TARGET: Wnt5a (protein binding on small-molecule microarray)
composite z-score: 1.16

## Input Sample CC1CC/C=C\[C@H]2OC34C=CCN(c5ccc(Cl)cc5)C(=O)[C@H]3N(CCCCCCO)C(=O)[C@]4(C)C2C(=O)O1 (stereo partly drawn) — what was its composite z-score?
## Output -0.765

## Input Another molecule: O=C1[C@H]2C=C(I)[C@H](C[C@@H]2OCCCCCCO)[C@@]12CO2
## Output -0.302

## Input Would you mind doing CC(C)(C)N1CC=CC23O[C@@H]4C=CCCOC(=O)C4[C@H]2C(=O)N(CCCCCCO)[C@@H]3C1=O (stereo partly drawn) as well?
## Output -0.515

src = PubChem BioAssay
